Target: saT1R2a/R3 (Sparus aurata, UniProt A0A671TK95+A0A671VZB3)
Sequence (A0A671TK95 20-825): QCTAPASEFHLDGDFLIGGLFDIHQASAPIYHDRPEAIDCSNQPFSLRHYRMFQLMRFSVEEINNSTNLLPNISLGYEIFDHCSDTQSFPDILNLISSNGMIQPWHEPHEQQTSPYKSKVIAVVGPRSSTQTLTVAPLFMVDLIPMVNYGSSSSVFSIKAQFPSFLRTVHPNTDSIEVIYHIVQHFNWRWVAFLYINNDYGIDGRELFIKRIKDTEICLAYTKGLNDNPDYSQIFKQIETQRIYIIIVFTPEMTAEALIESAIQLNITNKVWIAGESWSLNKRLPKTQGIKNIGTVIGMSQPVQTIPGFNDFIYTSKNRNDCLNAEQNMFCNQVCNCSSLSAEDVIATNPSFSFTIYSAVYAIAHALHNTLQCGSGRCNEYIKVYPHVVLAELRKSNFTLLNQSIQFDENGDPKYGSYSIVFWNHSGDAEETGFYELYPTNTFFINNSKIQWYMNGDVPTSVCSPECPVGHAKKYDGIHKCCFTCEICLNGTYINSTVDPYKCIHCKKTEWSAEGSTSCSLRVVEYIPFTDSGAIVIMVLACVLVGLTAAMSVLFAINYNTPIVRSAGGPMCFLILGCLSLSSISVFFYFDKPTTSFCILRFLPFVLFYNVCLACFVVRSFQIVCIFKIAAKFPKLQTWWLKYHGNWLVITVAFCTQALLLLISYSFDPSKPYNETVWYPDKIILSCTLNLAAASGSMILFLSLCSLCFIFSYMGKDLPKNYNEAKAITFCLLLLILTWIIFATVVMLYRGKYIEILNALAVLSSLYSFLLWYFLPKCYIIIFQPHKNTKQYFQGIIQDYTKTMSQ
Sequence (A0A671VZB3 24-860): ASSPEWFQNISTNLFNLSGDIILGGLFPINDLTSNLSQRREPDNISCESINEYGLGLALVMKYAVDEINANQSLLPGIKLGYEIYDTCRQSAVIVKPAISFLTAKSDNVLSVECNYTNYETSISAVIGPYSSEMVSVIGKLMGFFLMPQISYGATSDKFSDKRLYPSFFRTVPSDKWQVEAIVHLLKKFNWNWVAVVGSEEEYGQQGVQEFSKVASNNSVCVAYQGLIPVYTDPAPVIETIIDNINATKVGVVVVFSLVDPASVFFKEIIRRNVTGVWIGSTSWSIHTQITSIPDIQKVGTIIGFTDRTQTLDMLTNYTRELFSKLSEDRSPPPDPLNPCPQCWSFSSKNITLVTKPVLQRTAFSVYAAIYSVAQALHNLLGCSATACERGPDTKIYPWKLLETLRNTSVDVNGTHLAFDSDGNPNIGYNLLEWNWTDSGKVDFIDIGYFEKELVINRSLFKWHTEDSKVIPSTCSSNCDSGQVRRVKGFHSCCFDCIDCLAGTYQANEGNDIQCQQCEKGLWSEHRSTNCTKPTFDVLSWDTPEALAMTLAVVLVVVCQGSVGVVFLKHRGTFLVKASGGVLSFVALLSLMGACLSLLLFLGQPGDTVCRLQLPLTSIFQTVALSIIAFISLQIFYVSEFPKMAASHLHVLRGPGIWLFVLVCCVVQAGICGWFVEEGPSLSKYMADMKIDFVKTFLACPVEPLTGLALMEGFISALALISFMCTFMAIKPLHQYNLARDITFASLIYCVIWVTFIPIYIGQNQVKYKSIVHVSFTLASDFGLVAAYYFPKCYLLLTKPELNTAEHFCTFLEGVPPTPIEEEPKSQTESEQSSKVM
Assay: saT1R2a/R3 heterodimer transiently transfected in stable pGL3-NFAT-luc-HEK293 (Cl.3) cells, luciferase reporter
Type: cell-based
Conditions: as molarity; decimal comma
attribute-measured: T1R2a/R3 [MSD] maximum stimulation dose

| substance-smiles | T1R2a/R3 [MSD] maximum stimulation dose |
| --- | --- |
| N[C@@H](Cc1c[nH]c2ccccc12)C(=O)O | 1,00 × 10^-3 M |
| N[C@@H](Cc1c[nH]cn1)C(=O)O | 1,00 × 10^-5 M |
| N[C@@H](CS)C(=O)O | 1,00 × 10^-4 M |
| N=C(N)NCCC[C@H](N)C(=O)O | 1,00 × 10^-5 M |
| C[C@H](N)C(=O)O | 1,00 × 10^-1 M |

Q: // fetch T1R2a/R3 [MSD] maximum stimulation dose for N[C@@H](CCC(=O)O)C(=O)O ; system: saT1R2a/R3 (Sparus aurata, UniProt A0A671TK95+A0A671VZB3)
A: 1,00 × 10^-2 M

Q: // fetch T1R2a/R3 [MSD] maximum stimulation dose for NC(=O)CC[C@H](N)C(=O)O ; system: saT1R2a/R3 (Sparus aurata, UniProt A0A671TK95+A0A671VZB3)
A: 1,00 × 10^-1 M
